Hey, just so you know, these numbers are from patent US11524966B1.

Experimental System: USP28 (His-tagged USP28-FL-mammalian) (Homo sapiens, UniProt Q96RU2)
Construct: Expression of USP28 (1-1077)-TEV-6*His (pTT5 vector); made in house; host or cells: Expi293f cells (pTT5 vector)
Sequence (Q96RU2 1-1077): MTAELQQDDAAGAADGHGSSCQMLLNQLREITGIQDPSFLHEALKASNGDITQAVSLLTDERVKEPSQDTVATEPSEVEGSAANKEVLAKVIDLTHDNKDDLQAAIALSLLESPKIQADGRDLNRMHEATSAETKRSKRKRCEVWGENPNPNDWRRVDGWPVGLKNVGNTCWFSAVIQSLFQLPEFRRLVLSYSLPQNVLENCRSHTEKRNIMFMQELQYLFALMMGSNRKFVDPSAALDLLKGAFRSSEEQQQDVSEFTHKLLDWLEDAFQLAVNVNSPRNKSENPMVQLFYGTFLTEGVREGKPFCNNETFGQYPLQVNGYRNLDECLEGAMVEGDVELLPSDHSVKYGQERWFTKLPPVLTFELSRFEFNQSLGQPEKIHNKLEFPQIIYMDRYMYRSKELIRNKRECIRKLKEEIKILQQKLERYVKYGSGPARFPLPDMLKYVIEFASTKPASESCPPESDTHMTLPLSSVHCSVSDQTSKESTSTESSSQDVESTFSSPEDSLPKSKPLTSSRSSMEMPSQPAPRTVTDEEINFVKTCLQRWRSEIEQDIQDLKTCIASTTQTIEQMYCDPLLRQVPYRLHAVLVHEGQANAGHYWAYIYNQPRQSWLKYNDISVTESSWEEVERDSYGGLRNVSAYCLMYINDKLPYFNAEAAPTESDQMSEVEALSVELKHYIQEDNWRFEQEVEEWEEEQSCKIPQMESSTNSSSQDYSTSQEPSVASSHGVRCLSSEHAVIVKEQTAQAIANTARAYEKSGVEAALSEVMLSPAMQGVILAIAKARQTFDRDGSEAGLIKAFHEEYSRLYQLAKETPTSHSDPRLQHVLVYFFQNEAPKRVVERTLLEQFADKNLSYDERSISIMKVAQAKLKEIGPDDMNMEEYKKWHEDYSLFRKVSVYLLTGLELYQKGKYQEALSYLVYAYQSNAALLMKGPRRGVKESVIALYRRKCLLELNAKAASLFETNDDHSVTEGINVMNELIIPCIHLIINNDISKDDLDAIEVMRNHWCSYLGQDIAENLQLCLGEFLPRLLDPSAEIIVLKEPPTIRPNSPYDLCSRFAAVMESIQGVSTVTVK
Assay Comment: Ubiquitin-Rhodamine 110 Assay for USP28 Activity, Example A-1(a)
Format: biochemical
Recorded Conditions: Ubiquitin-Rhodamine 110 assay, Example A-1(a); read-out: USP28 A-1(a) IC50 range

# Compound, IC50
measured = [
    ("Cc1ccc2c(N)c(C(=O)N[C@H]3COc4cc(N5C[C@@H](N)C(F)(F)C5)ccc4C3)sc2n1", "1 to 50 nM"),
    ("Cc1nc2sc(C(=O)N[C@H]3COc4cc(N5CC6CCC(C5)N6)c(F)cc4C3)c(N)c2s1", "200 to 2000 nM"),
    ("O=C(N[C@H]1COc2cc(N3CCNCC3)ccc2C1)c1ccc(NCc2ccccc2)nc1", "200 to 2000 nM"),
    ("CO[C@H]1CN(c2ccc3c(c2)CC[C@H](NC(=O)c2sc4nc(C)ccc4c2N)C3)C[C@@H]1N", "50 to 200 nM"),
    ("Cc1ccc2c(N)c(C(=O)N[C@H]3COc4cc(N5C[C@H](OC(C)C)[C@@H](N)C5)ccc4C3)sc2n1", "1 to 50 nM"),
    ("Cc1ccc2c(N)c(C(=O)N[C@H]3COc4cc(N5C[C@@H]6CCNC[C@@H]65)ccc4C3)sc2n1 (single isomer, unassigned)", "1 to 50 nM"),
    ("Cc1ccc2c(N)c(C(=O)N[C@H]3COc4cc(N5CC(O)(C(F)(F)F)C5)ccc4C3)sc2n1", "1 to 50 nM"),
    ("Cc1ccc2c(N)c(C(=O)N[C@H]3COc4cc([C@H]5C[C@H](N)C5)ccc4C3)sc2n1", "1 to 50 nM"),
    ("CO[C@H]1CN(c2cc3c(c(F)c2C#N)C[C@@H](NC(=O)c2sc4nc(C)cnc4c2N)CO3)C[C@@H]1N", "1 to 50 nM"),
    ("Cc1ccc2c(N)c(C(=O)N[C@H]3COc4cc(N5CCC[C@@](C)(O)C5)ccc4C3)sc2n1", "1 to 50 nM"),
    ("Cc1ccc2c(N)c(C(=O)N[C@H]3COc4c(F)c(N5CC6CCC(C5)N6)cc(F)c4C3)oc2n1", "200 to 2000 nM"),
    ("N#Cc1c(N2CC3CCC(C2)N3)cc(F)c2c1CC[C@H](NC(=O)c1cnc3c(c1)[C@H]1C[C@H]1CN3)C2", "> 2000 nM"),
    ("O=C(N[C@H]1COc2cc(N3CCNCC3)ccc2C1)c1ccc(NCc2cccc(Cl)c2)nc1", "200 to 2000 nM"),
    ("Cc1ccc2c(N)c(C(=O)N[C@H]3COc4cc(N5CC6CCC[C@@]6(N)C5)ccc4C3)sc2n1 (stereo partly drawn)", "1 to 50 nM"),
    ("CCn1ccc2cc(C(=O)N[C@H]3CCc4nc(N5C[C@H](N)C6(COC6)C5)ccc4C3)cnc21", "> 2000 nM"),
]

----------
Experimental System: USP28 (His-tagged USP28-FL-mammalian) (Homo sapiens)
Construct: Expression of USP28 (1-1077)-TEV-6*His (pTT5 vector); made in house; host or cells: Expi293f cells (pTT5 vector)
Assay Comment: Ubiquitin-Rhodamine 110 Assay for USP28 Activity, Example A-1(a)
Assay type: biochemical
Recorded Conditions: Ubiquitin-Rhodamine 110 assay, Example A-1(a); read-out: USP28 A-1(a) IC50 range
pIC50: −log10 of the molar value.

# Compound, pIC50
rows = [
    ("Cc1ccc2c(N)c(C(=O)N[C@H]3COc4cc(N5CC[C@@H]6CC[C@H](N)C[C@@H]65)ccc4C3)sc2n1 [Example 234]", "7.30 to 9.00"),
    ("COC[C@@H]1CN(c2ccc3c(c2)OC[C@H](NC(=O)c2sc4nc(C)cc(C)c4c2N)C3)C[C@@H]1N [Example 275]", "7.30 to 9.00"),
    ("CCO[C@H]1CN(c2ccc3c(n2)CC[C@H](NC(=O)c2sc4nc(C)ccc4c2N)C3)C[C@H]1N [Example 255]", "6.70 to 7.30"),
    ("Cc1ccc2c(N)c(C(=O)N[C@H]3COc4cc(N5CC[C@]6(CCCNC6)C5)ccc4C3)sc2n1 [Example 3-13]", "7.30 to 9.00"),
    ("Cc1nc2sc(C(=O)N[C@H]3COc4cc(N5CCNCC5)c(F)c(F)c4C3)c(N)c2s1 [Example 66]", "7.30 to 9.00"),
    ("COC[C@H]1CN(c2nc3c(cc2F)C[C@H](NC(=O)c2sc4nc(C)ccc4c2N)CC3)C[C@H]1N (single isomer, unassigned) [Example 303]", "5.70 to 6.70"),
    ("CO[C@@]1(C)CN(c2ccc3c(n2)CC[C@H](NC(=O)c2sc4nc(C)cnc4c2N)C3)C[C@@H]1N [Example 279]", "5.70 to 6.70"),
    ("CCn1ccc2cc(C(=O)N[C@H]3CCc4cc(N5CC6CCC(C5)N6)ccc4C3)cnc21 (single isomer, unassigned) [Example 11-9]", "5.70 to 6.70"),
    ("Cc1cnc2c(N)c(C(=O)N[C@H]3COc4cc(N5CC6CC(C5)N6)cc(F)c4C3)sc2n1 [Example 10-8]", "7.30 to 9.00"),
    ("O=C(N[C@H]1COc2cc(N3CC4CCC(C3)N4)ccc2C1)c1cnc2c(c1)CCCN2 [Example 50]", "6.70 to 7.30"),
    ("Cc1ccc2c(N)c(C(=O)N[C@H]3CCc4nc(N5C[C@@H]6NCCC(F)(F)[C@@H]6C5)ccc4C3)sc2n1 [Example 330]", "6.70 to 7.30"),
    ("Cc1ccc2c(N)c(C(=O)N[C@H]3COc4cc(N5CC[C@@H]6CNC[C@@H]65)ccc4C3)sc2n1 [Example 165]", "7.30 to 9.00"),
    ("O=C(N[C@H]1COc2cc(N3CCNCC3)ccc2C1)c1cnn2cc(Cl)ccc12 [Example 462]", "< 5.70"),
    ("Cc1ccc2c(N)c(C(=O)N[C@H]3CCc4nc(N5C[C@H]6CCN[C@@H](C5)C6(F)F)ccc4C3)sc2n1 [Example 368]", "7.30 to 9.00"),
    ("CO[C@@H]1CN(c2ccc3c(n2)CC[C@H](NC(=O)c2sc4nc(C)ccc4c2N)C3)C[C@@]1(C)N [Example 240]", "5.70 to 6.70"),
    ("Cc1ccc2c(N)c(C(=O)N[C@H]3CCc4nc(N5C[C@@H]6CCN[C@H](C5)C6(F)F)ccc4C3)sc2n1 [Example 367]", "7.30 to 9.00"),
    ("Cc1ccc2c(N)c(C(=O)N[C@H]3CCc4nc(N5CC6CCC(C5)N6)ccc4C3)sc2n1 [Example 23-12]", "7.30 to 9.00"),
    ("O=C(N[C@H]1CCc2cc(N3CC4CCC(C3)N4)cc(F)c2C1)c1cnc2c(c1)[C@H]1C[C@H]1CN2 [Example 192]", "6.70 to 7.30"),
    ("Cc1ccc2c(N)c(C(=O)N[C@H]3CCc4nc(N5CCN[C@@H](C)C5)ccc4C3)sc2n1 (single isomer, unassigned) [Example 23-15]", "7.30 to 9.00"),
    ("CO[C@]1(C)CN(c2ccc3c(n2)CC[C@H](NC(=O)c2sc4nc(C)ccc4c2N)C3)C[C@@H]1N [Example 427]", "6.70 to 7.30"),
    ("COC[C@]1(C)CN(c2ccc3c(n2)CC[C@H](NC(=O)c2sc4nc(C)ccc4c2N)C3)C[C@@H]1N [Example 342]", "6.70 to 7.30"),
    ("COC[C@@H]1CN(c2cc(F)c3c(c2)OC[C@H](NC(=O)c2sc4nc(C)ccc4c2N)C3)C[C@@H]1N [Example 250]", "7.30 to 9.00"),
    ("C[C@H](Nc1ccc(C(=O)N[C@H]2COc3cc(N4CCNCC4)ccc3C2)cn1)c1ccccc1 [Example 53]", "< 5.70"),
    ("Cc1ccc2c(N)c(C(=O)N(C)[C@@H]3COc4cc(N5CCNCC5)cc(F)c4C3)sc2n1 [Example 10-16]", "< 5.70"),
    ("CCOC1CN(c2ccc3c(c2)OC[C@H](NC(=O)c2sc4nc(C)cc(C)c4c2N)C3)C[C@@H]1N (stereo in doubt) [Example 323]", "7.30 to 9.00"),
    ("Cc1ccc2c(N)c(C(=O)N[C@H]3COc4cc(N5CC[C@H]6CCNC[C@H]65)ccc4C3)sc2n1 [Example 224]", "7.30 to 9.00"),
    ("Cc1cnc2c(N)c(C(=O)N[C@H]3COc4cc(N5CCNCC5)c(C#N)c(F)c4C3)sc2n1 [Example 67]", "7.30 to 9.00"),
    ("O=C(N[C@H]1COc2cc(N3CCNCC3)ccc2C1)c1ccc(NCc2cccc(C(F)(F)F)c2)nc1 [Example 469]", "6.70 to 7.30"),
]
